# assay.system: NtcA (Prochlorococcus marinus, UniProt Q7TUN1)
# Construct: recombinant His6-tagged NtcA (pET-15b)
# Sequence (Q7TUN1 1-222): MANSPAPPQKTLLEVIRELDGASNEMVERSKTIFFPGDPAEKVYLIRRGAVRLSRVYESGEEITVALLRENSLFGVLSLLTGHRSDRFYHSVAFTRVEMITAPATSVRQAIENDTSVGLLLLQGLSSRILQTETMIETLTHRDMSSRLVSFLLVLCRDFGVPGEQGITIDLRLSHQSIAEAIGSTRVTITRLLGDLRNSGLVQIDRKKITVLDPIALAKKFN
# test.method.notes: ITC of NtcA-dsDNA at varied 2OG, ternary equilibrium fit; supported by SPR and EMSA
readout.label: Kd (mM)
Just the number please, in mM, no unit attached.

Entry O=C(O)CCC(=O)C(=O)O [2OG, 2-oxoglutarate] ; Kd = 19
